# Assayed system: T1, rat collagen, acid soluble, type I, rat tail (Upstate 08-115) (rat, UniProt P02454 152-1207; P02466 86-1125)
# T1 construct: tissue extract, gelled and dried in wells; also called dried rat collagen
# T1 sequence (P02454 152-1207, chain 1 of 2): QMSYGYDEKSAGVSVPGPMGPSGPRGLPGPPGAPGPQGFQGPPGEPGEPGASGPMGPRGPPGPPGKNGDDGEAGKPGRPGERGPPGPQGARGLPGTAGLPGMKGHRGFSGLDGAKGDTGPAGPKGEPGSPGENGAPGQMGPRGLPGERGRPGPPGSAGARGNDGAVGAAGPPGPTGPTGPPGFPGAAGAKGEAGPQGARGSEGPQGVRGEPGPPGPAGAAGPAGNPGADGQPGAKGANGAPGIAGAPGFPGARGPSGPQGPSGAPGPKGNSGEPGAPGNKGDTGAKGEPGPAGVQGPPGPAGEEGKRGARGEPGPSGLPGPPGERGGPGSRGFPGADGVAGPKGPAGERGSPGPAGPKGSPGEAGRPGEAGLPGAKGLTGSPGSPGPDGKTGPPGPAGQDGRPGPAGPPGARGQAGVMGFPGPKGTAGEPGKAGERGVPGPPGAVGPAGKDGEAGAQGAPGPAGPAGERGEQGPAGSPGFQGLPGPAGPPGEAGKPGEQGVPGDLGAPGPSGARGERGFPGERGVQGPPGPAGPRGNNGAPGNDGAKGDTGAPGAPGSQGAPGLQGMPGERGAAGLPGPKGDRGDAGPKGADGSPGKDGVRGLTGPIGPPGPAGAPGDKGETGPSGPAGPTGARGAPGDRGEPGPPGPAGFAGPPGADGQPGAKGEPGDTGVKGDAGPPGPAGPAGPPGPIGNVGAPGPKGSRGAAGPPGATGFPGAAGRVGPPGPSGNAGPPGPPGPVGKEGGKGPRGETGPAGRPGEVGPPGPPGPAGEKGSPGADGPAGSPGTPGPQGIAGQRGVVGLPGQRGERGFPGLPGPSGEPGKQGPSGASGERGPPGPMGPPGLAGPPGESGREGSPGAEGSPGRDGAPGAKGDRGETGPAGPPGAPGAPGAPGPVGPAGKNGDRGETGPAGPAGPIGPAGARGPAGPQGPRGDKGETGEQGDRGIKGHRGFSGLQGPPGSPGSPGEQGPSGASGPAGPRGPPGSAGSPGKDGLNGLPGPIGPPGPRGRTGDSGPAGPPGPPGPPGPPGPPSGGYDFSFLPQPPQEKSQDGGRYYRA
# T1 sequence (P02466 86-1125, chain 2 of 2): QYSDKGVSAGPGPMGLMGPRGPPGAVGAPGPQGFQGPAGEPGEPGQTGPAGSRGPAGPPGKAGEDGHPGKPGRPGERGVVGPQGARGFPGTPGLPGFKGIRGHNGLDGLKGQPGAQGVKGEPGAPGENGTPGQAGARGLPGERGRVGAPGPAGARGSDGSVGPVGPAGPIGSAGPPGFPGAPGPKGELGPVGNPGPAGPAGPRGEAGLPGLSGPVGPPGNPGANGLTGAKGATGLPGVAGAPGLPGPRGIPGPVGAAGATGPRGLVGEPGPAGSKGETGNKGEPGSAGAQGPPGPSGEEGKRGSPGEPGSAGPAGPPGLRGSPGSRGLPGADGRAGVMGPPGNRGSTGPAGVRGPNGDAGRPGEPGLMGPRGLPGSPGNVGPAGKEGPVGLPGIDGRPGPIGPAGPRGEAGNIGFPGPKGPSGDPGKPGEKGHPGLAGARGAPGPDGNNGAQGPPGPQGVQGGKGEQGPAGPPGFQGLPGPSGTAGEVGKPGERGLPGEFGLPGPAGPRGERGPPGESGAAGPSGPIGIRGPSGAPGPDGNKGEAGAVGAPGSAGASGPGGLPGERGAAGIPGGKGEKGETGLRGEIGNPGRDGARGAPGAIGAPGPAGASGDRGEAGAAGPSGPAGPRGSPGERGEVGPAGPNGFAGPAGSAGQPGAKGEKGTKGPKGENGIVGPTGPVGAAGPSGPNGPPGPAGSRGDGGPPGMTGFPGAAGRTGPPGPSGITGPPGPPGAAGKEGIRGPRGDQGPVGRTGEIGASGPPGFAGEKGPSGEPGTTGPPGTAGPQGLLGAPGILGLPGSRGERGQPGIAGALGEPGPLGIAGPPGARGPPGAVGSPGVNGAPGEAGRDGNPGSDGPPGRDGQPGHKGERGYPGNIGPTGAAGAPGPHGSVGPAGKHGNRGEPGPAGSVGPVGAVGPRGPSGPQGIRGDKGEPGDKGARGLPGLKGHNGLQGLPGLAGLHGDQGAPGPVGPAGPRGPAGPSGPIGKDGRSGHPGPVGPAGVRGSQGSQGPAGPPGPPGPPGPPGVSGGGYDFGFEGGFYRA
# Assay overview: dried collagen assay
Bridge positions count the residues as written; N and C are the ends. Square brackets hold non-standard residues; d marks the D form. Primed or numbered codes have the meaning given here. Side chains are listed from the residue outwards. Ends that are not written are not given here. Bpa = N[C@@H](Cc1ccc(C(=O)c2ccccc2)cc1)C(=O)O; Tyr(3-Cl) = N[C@@H](Cc1ccc(O)c(Cl)c1)C(=O)O; Tyr(3-I) = N[C@@H](Cc1ccc(O)c(I)c1)C(=O)O; Dmt = Cc1cc(O)cc(C)c1C[C@H](N)C(=O)O; 1,4 AMB(Gd^T) = not defined here; Gd^G = not defined here; Gd^T″ = GdDTPA-thiourea
Binary label based on % bound with cut-off 20%: below gives true, not below gives false.

* {Gd^T″}-GQWHCT[dN]RFPHHYCLYG (disulfide 5-14 (inferred); not fully specified (C-terminus)) [Compound ID 897] | true
* {Gd^T″}-DWTCSGDEYTWHCN[Tyr(3-I)]E (disulfide 4-13 (inferred); not fully specified (C-terminus)) [Compound ID 831] | false
* {Gd^T″}-GQWHCTTDFPHHYCL[Tyr(3-Cl)]G (disulfide 5-14 (inferred)) [Compound ID 892] | false
* {Gd^G}-PWTCSGDEYAWHCNY[dE] (disulfide 4-13 (inferred); not fully specified (C-terminus); reading uncertain) [Compound ID 824] | true
* {Gd^T″}-GAWTCSGDEYTWHCNYE (disulfide 5-14 (inferred); not fully specified (C-terminus)) [Compound ID 830] | true
* {Gd^T″}-GQWHCTTDFPHHYCLFG (disulfide 5-14 (inferred)) [Compound ID 890] | true
* {Gd^T″}-GK([Gly-Gd^T″])WHCYTYFPHHYCVYY (disulfide 5-14 (inferred)) [Compound ID 945] | false
* {Gd^T″}-GQWHCTTYFPHHYCLYG-{1,4 AMB(Gd^T)} (disulfide 5-14 (inferred); reading uncertain) [Compound ID 816] | false
* {Gd^T″}-GK([Gly-Gd^T″])WHCTTYFPHH[Dmt]CLYG (disulfide 5-14 (inferred)) [Compound ID 953] | false
* {Gd^T″}-GQWHCTTDFPHHYCL[Bpa]G (disulfide 5-14) [Compound ID 889] | true
